Where these numbers come from: patent US20210403435A1

- System: Digitaria sanguinalis (DIGSA)
- experiment-summary: Post-emergence efficacy, glasshouse, evaluated after 13 days
- Format: in vivo
- condition-summary: Digitaria sanguinalis, 312 h; post-emergence application, 500 g/Ha, evaluated after 13 days; read-out: Control of weed species DIGSA (100=total damage to plant; 0=no damage to plant)
assay-readout: pest or weed control at 500 g/ha (%)
Quick note: give the figure in %, leave out the unit.

// solved cases for pest or weed control at 500 g/ha follow
smiles-data: C=CCNC(=O)c1cc[n+](CCC(=O)O)nc1
pest or weed control at 500 g/ha (%): 100
//
smiles-data: CCCNC(=O)c1cc[n+](CCS(=O)(=O)[O-])nc1
pest or weed control at 500 g/ha (%): 90
//
smiles-data: O=C(c1cc[n+](CCS(=O)(=O)[O-])nc1)N1CCOCC1
pest or weed control at 500 g/ha (%): 70
//
smiles-data: C#CCNC(=O)c1cc[n+](CCS(=O)(=O)[O-])nc1
pest or weed control at 500 g/ha (%): 70

Please report the recorded pest or weed control at 500 g/ha for "CC(C)(C)NC(=O)c1cc[n+](CCS(=O)(=O)O)nc1" .
80
